Consider the following compounds and their measured pIC50 readings.
Test system: 885512-296-R-J2-PDC complex spheroid viability
test.name: Anticancer human tumor 885512-296-R-J2-PDC patient-derived breast carcinoma cell line growth inhibition [GQUAD]
measurement.parameters: curve of first compound; second compound 0.0316 µM
Units for pIC50: none; it is -log10 of a concentration expressed in mol/L.

Example entries begin here.
compound	pIC50
COc1ccc([C@@H](O)c2cc(-c3ncnc4cc(N5CCOCC5)ccc34)c(F)cc2Cl)nn1 + CN(C)c1ccc(Nc2c3ccc(NC(=O)CCN4CCCC4)cc3nc3cc(NC(=O)CCN4CCCC4)ccc23)cc1	5.02
CC1COCCN1c1cc(-c2ccnn2C)c2ccnc(-c3ccn[nH]3)c2n1 (stereo unspecified) + CN(C)c1ccc(Nc2c3ccc(NC(=O)CCN4CCCC4)cc3nc3cc(NC(=O)CCN4CCCC4)ccc23)cc1	7.43
C#Cc1c(F)ccc2cc(O)cc(-c3ncc4c(N5CC6CCC(C5)N6)nc(OCC56CCCN5CC(F)C6)nc4c3F)c12 (stereo unspecified) + Cc1[nH]c2ccc(F)cc2c1-c1nc2c3cccnc3c3ncccc3c2[nH]1	5.80
CC1COCCN1c1cc(C2(S(C)(=N)=O)CC2)nc(-c2ccnc3[nH]ccc23)n1 (stereo unspecified) + CN(C)c1ccc(Nc2c3ccc(NC(=O)CCN4CCCC4)cc3nc3cc(NC(=O)CCN4CCCC4)ccc23)cc1	6.10
COc1cc(C2c3cc4c(cc3C(OC3OC5COC(C)OC5C(O)C3O)C3COC(=O)C23)OCO4)cc(OC)c1O (stereo unspecified) + Cc1[nH]c2ccc(F)cc2c1-c1nc2c3cccnc3c3ncccc3c2[nH]1	6.13

Alright, here's another compound for you.
// pIC50 value for CC[C@@]1(O)C(=O)OCc2c1cc1n(c2=O)Cc2cc3c(CN(C)C)c(O)ccc3nc2-1 + CN(C)c1ccc(Nc2c3ccc(NC(=O)CCN4CCCC4)cc3nc3cc(NC(=O)CCN4CCCC4)ccc23)cc1 : 7.71

----------
Test system: 885512-296-R-J2-PDC complex spheroid viability
test.name: Anticancer human tumor 885512-296-R-J2-PDC cell line growth inhibition [GQUAD];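 note: spheroids exposed to the compounds for one week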;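 for viability, T/C: percent of tumor spheroid viability relative to DMSO vehicle control wells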
measurement.parameters: second compound 10 µM; first compound 0.000999 µM; stronger effect = lower value
Consider the following molecules and their measured viability, T/C readings.
Write it as a number; the unit % goes unstated.

molecule	target.of.assay	reported
Cc1[nH]c2ccccc2c1CCNCc1ccc(/C=C/C(=O)NO)cc1 + CN(C)c1ccc(Nc2c3ccc(NC(=O)CCN4CCCC4)cc3nc3cc(NC(=O)CCN4CCCC4)ccc23)cc1	885512-296-R-J2-PDC complex spheroid viability	18.2
CC[C@@]1(O)C(=O)OCc2c1cc1n(c2=O)Cc2cc3c(CN(C)C)c(O)ccc3nc2-1 + CN(C)c1ccc(Nc2c3ccc(NC(=O)CCN4CCCC4)cc3nc3cc(NC(=O)CCN4CCCC4)ccc23)cc1	885512-296-R-J2-PDC complex spheroid viability	20.1
CC[C@@]1(O)C(=O)OCc2c1cc1n(c2=O)Cc2cc3c(CN(C)C)c(O)ccc3nc2-1 + Cc1cnc(CNC(=O)c2c(=O)c3ccc(N4CCCN(C)CC4)nc3n3c2sc2ccccc23)cn1	885512-296-R-J2-PDC complex spheroid viability	0.07
Cc1[nH]c2ccccc2c1CCNCc1ccc(/C=C/C(=O)NO)cc1 + Cc1cnc(CNC(=O)c2c(=O)c3ccc(N4CCCN(C)CC4)nc3n3c2sc2ccccc23)cn1	885512-296-R-J2-PDC complex spheroid viability	0.17
Cn1ncnc1[C@H]1c2n[nH]c(=O)c3cc(F)cc(c23)N[C@@H]1c1ccc(F)cc1 + CN(C)c1ccc(Nc2c3ccc(NC(=O)CCN4CCCC4)cc3nc3cc(NC(=O)CCN4CCCC4)ccc23)cc1	885512-296-R-J2-PDC complex spheroid viability	18.6

Alright, here's another molecule for you.
// viability, T/C value for Cn1ncnc1[C@H]1c2n[nH]c(=O)c3cc(F)cc(c23)N[C@@H]1c1ccc(F)cc1 + Cc1cnc(CNC(=O)c2c(=O)c3ccc(N4CCCN(C)CC4)nc3n3c2sc2ccccc23)cn1 : 0.17
